- Method Summary: NCI Yeast Anticancer Drug Screen. Data for the cln2 rad14 strain (AID 165);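 note: 0% = growth equal to vehicle treated cultures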
- Condition Details: S. cerevisiae cln2 rad14 strain, at 50.0 µM, stronger effect = higher value
This is part of a sample that, as a whole, favours compounds with a hit. Of some 79,000 tested, about 15% had one in any assay. The source made the active and inactive calls. Cut-off read from the data, not from the text of the source: active = growth inhibition above about 70%; inactive = the rest. Where a SMILES comes first, the peptide text is derived from it. The star is where a group is joined. Cbz = O=C(OCc1ccccc1)*
compounds and their reported growth inhibition

Compound | growth inhibition
CC(C)CC(NC(=O)C(CO)NC(=O)OCc1ccccc1)C(=O)NC(Cc1ccc(O)cc1)C(N)=O (stereo not drawn) (Cbz-Ser-Leu-Tyr-NH2; configuration not given here) | 4.9% (inactive)

Given the entry Cc1cn(C2OC3COC2C3O)c(=O)[nH]c1=O (centres undefined) , report its measured growth inhibition.
27.2% (inactive)

Next compound: CN(Cc1ccccc1)C(=O)NC1CCCCC1
-22.8% (inactive)

For O=C1Nc2cc(Cl)ccc2N=CC1NC(=O)C(c1ccccc1)c1ccccc1Cl (centres undefined) then?
-15.9% (inactive)

For COc1cccc(-c2nc(-c3cnccn3)n(C3OC(CO)C(O)C3O)n2)c1 (centres undefined) then?
11.6% (inactive)

Then this compound: c1ccc2c(c1)Nc1nc3ccccc3nc1N2
15.8% (inactive)

What do you get for CCN(CC)Cc1cc(N=Nc2cccc3ccccc23)c2ccccc2c1O ?
24.9% (inactive)

Then this compound: CC(=NCc1ccccc1)c1c(C)cc(=O)n(-c2ccccc2)c1O
-70.5% (inactive)

Please give the result for CC(C)(C)C(=O)Oc1ccc(/C=C/C(=O)c2ccc(OC(=O)C(C)(C)C)cc2)cc1 too.
-20.9% (inactive)

Next: NC(=O)C(F)(F)c1ccccc1
10.1% (inactive)

Again, but for CCCCC1OCCOC1C1COCCO1 (centres undefined)
-6% (inactive)

Please give the result for CCN(CC)CCN1Cc2ccccc2C1 too.
-14.1% (inactive)

Same read-out for C=C(C(=C)P(=S)(c1ccccc1)c1ccccc1)P(=S)(c1ccccc1)c1ccccc1 ?
-7.15% (inactive)

Another: N=c1c2ccccc2nc2oc3ccc(Cl)cc3n12
-0.45% (inactive)

Same lookup for CCN(CC)/C(C=[N+]=[N-])=N\C(N)=N\S(=O)(=O)c1ccc(OC)cc1 , please.
-28% (inactive)

Next compound up: CC1C=CC(C)N(c2nnnn2C)N1c1nnnn1C (centres undefined)
-6.3% (inactive)

Same for CCOC(=O)N1N=NC(c2ccccc2)C1(c1ccccc1)N1CCOCC1 (centres undefined)
4.05% (inactive)

###

Catalogue of growth inhibition values
- Method Summary: NCI Yeast Anticancer Drug Screen. Data for the sgs1 mgt1 strain (AID 161);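 note: 0% = growth of cultures given vehicle only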
- Condition Details: S. cerevisiae sgs1 mgt1 strain, at 50.0 µM, stronger effect = higher value
This is part of a sample that, as a whole, favours compounds with a hit. Of some 79,000 tested, about 15% had one in any assay.
Report only the number, with the unit % understood.

Study these solved cases before continuing.
Molecule | Measured Result
COC(=O)N1CC2CC=CC(C2)c2ccccc21 (stereo not drawn) | -1.35
Cc1cn(C2OC3COC2C3O)c(=O)[nH]c1=O (stereo not drawn) | 10.7
C=CCSS/C=C/CS(=O)CC=C (stereo not drawn) | 75.3
COc1cc2c(cc1OC)C1(CCBr)C3CC4C(=CCOC5CC(=O)N2C1C54)CN3C(=O)Cc1ccccc1 (stereo not drawn) | -3.45
CC(C)(C)C1=CC(=O)OC1(Cl)C(C)(C)C (stereo not drawn) | -1.05

Continue with the molecule presented below.
// returns reported growth inhibition for input Cc1cc(N2CCOCC2)nc2ccc(Cc3ccc4nc(N5CCOCC5)cc(C)c4c3)cc12
-32.2

###

- Method Summary: NCI Yeast Anticancer Drug Screen. Data for the bub3 strain (AID 167)
- Condition Details: S. cerevisiae bub3 mutant strain, at 50.0 µM, stronger effect = higher value
Compounds without any hit were thinned out: in the full panel of roughly 79,000, 15% have a hit.
Assign true (1) to entries whose growth inhibition meets or exceeds 10%; assign false (0) to the rest.

See these solved cases before continuing.
Molecule | Discrete Label
CC1(C)CC2C(C1=O)C1(C)CCCC2(C)C1=O (configuration not stated) | false (0)
CCOC(=O)Nc1ccccc1F | false (0)
Cc1ncc([N+](=O)[O-])n1CCSC(N)=O | true (1)
Nc1cc(Cl)cc2c1nc(NCCO)c1ccccc12 | true (1)
Cc1cccc(C)c1NC(=O)Nc1cccc(Cl)c1 | true (1)
N#CCCN(CCC#N)C(Cc1cn(CCC#N)cn1)C(=O)O (configuration not stated) | false (0)
CCOC(=O)CCC(NC(=O)c1ccc(Nc2cnc3ccc(C(F)(F)F)cc3n2)cc1)C(=O)OCC (configuration not stated) | true (1)
Cc1cc(C)c(-c2c(C)cc(C)c([N+](=O)[O-])c2C)c(C)c1N | true (1)

Identify whether the reported growth inhibition of the following molecule is 10% or greater: Cc1cc(N(C)C)c([N+](=O)[O-])cc1C=O
false (0)

Follow-up item: CCOC(=O)c1sc(SC)nc1NC(=O)c1ccc([N+](=O)[O-])cc1
false (0)

Also CCN(CC)CCOC(=O)CCC(C)=O ?
false (0)

Proceed to CCC1C(=O)Nc2ccccc21 (configuration not stated)
true (1)

###

- Method Summary: NCI Yeast Anticancer Drug Screen. Data for the rad50 strain (AID 155);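 note: 0% = growth of vehicle-only cultures of the same strain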
- Condition Details: S. cerevisiae rad50 strain growth inhibition; at 50.0 µM; stronger effect = higher value
This is part of a sample that, as a whole, favours compounds with a hit. Of some 79,000 tested, about 15% had one in any assay.
Reported Endpoint: growth inhibition (%)
State just the number; it will be interpreted in %.

Molecule | growth inhibition [%]
O=NNc1ccnc(-c2cc(NN=O)ccn2)c1 | 22.2
NCCNC(=O)CCC(CN(CC(=O)O)CC(=O)O)N(CC(=O)O)CC(=O)O (stereo unspecified) | 42.8

Would you mind telling me what growth inhibition value was observed for CC(=O)OCC(=O)[C@@]1(O)CC[C@H]2[C@@H]3C[C@H](C)C4=CC(=O)C=C[C@]4(C)[C@@]3(Br)[C@@H](O)C[C@@]21C ?
30.9

Another molecule: Nc1nc(N)c2nc3c(nc2n1)CCCCCC3
4.25

Again, but for CCC(C)(O)CCc1ccccc1 (stereo unspecified)
-17.5

###

- Method Summary: NCI Yeast Anticancer Drug Screen. Data for the sgs1 mgt1 strain (AID 161);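 note: 0% = growth of cultures given vehicle only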
- Condition Details: S. cerevisiae sgs1 mgt1 strain, at 50.0 µM, stronger effect = higher value
This is part of a sample that, as a whole, favours compounds with a hit. Of some 79,000 tested, about 15% had one in any assay. Calls of active or inactive are those of the source. No stated cut-off is given here; in the data, active means growth inhibition above about 70%; inactive means the rest.
Reported Endpoint: growth inhibition

Use the examples below as a reference point.
Compound | growth inhibition
Cc1nc(C)c(N2CCN(S(=O)(=O)N(Cc3ccccc3)Cc3ccccc3)CC2)c(=O)[nH]1 | -32.3% (inactive)
Cc1cccc(I)c1 | -4.95% (inactive)
Cc1ccc(N2C(=O)CS/C2=C(\C#N)c2nc3ccccc3[nH]2)cc1 | -66.1% (inactive)
NC(=O)c1ncn(C2OC(CO)C(O)C2O)c1C(N)=O (stereo not drawn) | -12.5% (inactive)
COc1c(OC(C)=O)cc(Cl)c(C=O)c1[N+](=O)[O-] | 19.3% (inactive)
O=c1c2ccccc2nc(-c2ccccc2)n1NC(=S)Nc1ccccc1 | -39.8% (inactive)
CS(=O)(=O)c1ccc(/C=C2/C=Cc3ccccc32)cc1 | 6.35% (inactive)
Oc1cccnc1I | 18.5% (inactive)
O=C(CCl)Nc1ccc(O)c2ccccc12 | 7.45% (inactive)
CC(=NCc1ccccc1)c1c(C)cc(=O)n(-c2ccccc2)c1O | -6.15% (inactive)

Recorded growth inhibition of O=c1[nH]c(-c2cccc(F)c2)nc2ccccc12 , please.
3.1% (inactive)

Record: COC(=O)C1=CON2C3CC4CC(C3)CC(C4)C12C (stereo not drawn)
-8.95% (inactive)

Now this one: Cc1ccc2ccccc2[n+]1CC(=O)c1ccc2c(c1)OCO2
-0.6% (inactive)

Then what about the compound N#Cc1cccc2c(S(=O)(=O)O)cccc12 ?
11.6% (inactive)

Param item: CC(=O)Oc1cccc(CN2CCc3ccccc3C2)c1
1.55% (inactive)

Please do the same for CC1OC(n2cc(F)c(=O)[nH]c2=O)CCC1O (stereo not drawn) as well.
33.2% (inactive)

// same read-out, input: COc1ccc(/C=C/C2=CC(=O)CC(/C=C/c3ccc(OC)c(OC)c3)C2)cc1OC (stereo not drawn)
28.9% (inactive)

Record: Clc1ccc(-c2ncc(-c3ccccc3)o2)cc1
-6.75% (inactive)

Likewise for CC(C(=O)O)C(Nc1ncnc2c1ncn2C1OC(CO)C(O)C1O)C(=O)O (stereo not drawn) ?
-27.6% (inactive)

Moving on to CCOC(=O)c1ccc(NC(=O)Nc2cc(Cl)ncn2)cc1
9.15% (inactive)
